Listing of recorded EC50 by entry.
System: mKCNQ2 channels (Mus musculus, UniProt Q9Z351)
Test Name: KCNQ whole-cell patch-clamp
Condition Set: HEK 293 stable cell line expressing mKCNQ2; steady-state current at end of 600 ms step from holding potential -80 mV
Parameter Measured: EC50 (nM)

Compound	System	Observed Measurement
CCN(CC)CCc1nc(C(F)(F)F)c(C(=O)NC(C)c2cccc(OC(F)(F)F)c2)s1 (centres unmarked)	mKCNQ2 channels (Mus musculus, UniProt Q9Z351)	3560
CC(NC(=O)c1sc(CCN2CCSCC2)nc1C(F)(F)F)c1cccc(C(F)(F)F)c1 (centres unmarked)	mKCNQ2 channels (Mus musculus, UniProt Q9Z351)	1230

meta.source: patent US6933308B2
